B1: FLAG-tagged KIR3DL1*001 [human] / HLA-B*57:01-LF9 tetramer [human | not stated] (parent complex)
chain 1: HMGGQDKPFLSAWPSAVVPRGGHVTLRCHYRHRFNNFMLYKEDRIHIPIFHGRIFQESFNMSPVTTAHAGNYTCRGSHPHSPTGWSAPSNPVVIMVTGNHRKPSLLAHPGPLVKSGERVILQCWSDIMFEHFFLHKEGISKDPSRLVGQIHDGVSKANFSIGPMMLALAGTYRCYGSVTHTPYQLSAPSDPLDIVVTGPYEKPSLSAQPGPKVQAGESVTLSCSSRSSYDMYHLSREGGAHERRLPAVRKVNRTFQADFPLGPATHGGTYRCFGSFRHSPYEWSDPSDPLLVSVTGNPSSSWPSPTEPSSKSGNPRHLHILIGTSVVIILFILLLFFLLHLWCSNKKNAAVMDQEPAGNRTANSEDSDEQDPEEVTYAQLDHCVFTQRKITRPSQRPKTPPTDTILYTELPNAKPRSKVVSCP
chain 2: not shown
chain 3: not shown
chain 4: LSSPVTKSF

# Variants of: B1
# Test Summary: pHLA tetramer staining of transfected HEK293T cells; read off a plot
Metric Name: response

chain 1 G138W; ~83
chain 1 P163S; ~81
chain 1 P199L; ~71

Task: Could you share which response value was measured for chain 1 L166R ?
Result: ~8
